Data origin: paper PMC9378659

system: Staphylococcus epidermidis ATCC 12228
Measured MIC values are reported for all entries that follow.
QUANTITY: MIC (mg/L)

>  <COMPOUND>
O=C(O)c1cn(C2CC2)c2cc(N3CCNCC3)c(F)cc2c1=O [Ciprofloxacin]

>  <QUANTITY>
MIC

>  <OBSERVED MEASUREMENT>
0.048

$$$$
>  <COMPOUND>
O=C(O)c1cn(C2CC2)c2cc(N3CCN(C(=S)c4ccc(Br)cc4)CC3)c(F)cc2c1=O [Compound 3l]

>  <QUANTITY>
MIC

>  <OBSERVED MEASUREMENT>
0.048

$$$$
>  <COMPOUND>
O=C(O)c1cn(C2CC2)c2cc(N3CCN(C(=S)c4ccc(F)cc4)CC3)c(F)cc2c1=O [Compound 3d]

>  <QUANTITY>
MIC

>  <OBSERVED MEASUREMENT>
0.048

$$$$
>  <COMPOUND>
O=C(O)c1cn(C2CC2)c2cc(N3CCN(C(=S)c4cccc(O)c4)CC3)c(F)cc2c1=O [Compound 3j]

>  <QUANTITY>
MIC

>  <OBSERVED MEASUREMENT>
0.048

$$$$
>  <COMPOUND>
O=C(O)c1cn(C2CC2)c2cc(N3CCN(C(=S)c4cccc(F)c4)CC3)c(F)cc2c1=O [Compound 3h]

>  <QUANTITY>
MIC

>  <OBSERVED MEASUREMENT>
0.097

$$$$
>  <COMPOUND>
O=C(O)c1cn(C2CC2)c2cc(N3CCN(C(=S)c4ccccc4F)CC3)c(F)cc2c1=O [Compound 3i]

>  <QUANTITY>
MIC

>  <OBSERVED MEASUREMENT>
0.024

$$$$
>  <COMPOUND>
O=C(O)c1cn(C2CC2)c2cc(N3CCN(C(=S)c4ccc(Cl)cc4)CC3)c(F)cc2c1=O [Compound 3e]

>  <QUANTITY>
MIC

>  <OBSERVED MEASUREMENT>
0.048

$$$$
>  <COMPOUND>
COc1ccc(C(=S)N2CCN(c3cc4c(cc3F)c(=O)c(C(=O)O)cn4C3CC3)CC2)cc1 [Compound 3f]

>  <QUANTITY>
MIC

>  <OBSERVED MEASUREMENT>
0.024

$$$$
>  <COMPOUND>
O=C(O)c1cn(C2CC2)c2cc(N3CCN(C(=S)c4cccc(Cl)c4)CC3)c(F)cc2c1=O [Compound 3m]

>  <QUANTITY>
MIC

>  <OBSERVED MEASUREMENT>
0.097

$$$$
>  <COMPOUND>
O=C(O)c1cn(C2CC2)c2cc(N3CCN(C(=S)c4cccc([N+](=O)[O-])c4)CC3)c(F)cc2c1=O [Compound 3g]

>  <QUANTITY>
MIC

>  <OBSERVED MEASUREMENT>
0.024

$$$$
>  <COMPOUND>
O=C(O)c1cn(C2CC2)c2cc(N3CCN(C(=S)c4ccccc4)CC3)c(F)cc2c1=O [Compound 3a]

>  <QUANTITY>
MIC

>  <OBSERVED MEASUREMENT>
0.024

$$$$
>  <COMPOUND>
Cc1ccc(C(=S)N2CCN(c3cc4c(cc3F)c(=O)c(C(=O)O)cn4C3CC3)CC2)cc1 [Compound 3c]

>  <QUANTITY>
MIC

>  <OBSERVED MEASUREMENT>
0.024

$$$$
>  <COMPOUND>
O=C(O)c1cn(C2CC2)c2cc(N3CCN(C(=S)c4ccc([N+](=O)[O-])cc4)CC3)c(F)cc2c1=O [Compound 3n]

>  <QUANTITY>
MIC

>  <OBSERVED MEASUREMENT>
0.39

$$$$
>  <COMPOUND>
O=C(O)c1cn(C2CC2)c2cc(N3CCN(C(=S)c4cccc(Oc5ccccc5)c4)CC3)c(F)cc2c1=O [Compound 3k]

>  <QUANTITY>
MIC

>  <OBSERVED MEASUREMENT>
0.39

$$$$
>  <COMPOUND>
COc1cccc(C(=S)N2CCN(c3cc4c(cc3F)c(=O)c(C(=O)O)cn4C3CC3)CC2)c1 [Compound 3b]

>  <QUANTITY>
MIC

>  <OBSERVED MEASUREMENT>
0.024

$$$$
